- ASSAY_EXPLANATION: MTT/SRB cytotoxicity assay
- Assay type: cell-based
- SETUP_CONDITIONS: human, HepG2 cells; HepG2, after 48 h

| COMPOUND | viability at 48 h, % |
| --- | --- |
| Cc1nc(Nc2ncc(C(=O)Nc3c(C)cccc3Cl)s2)cc(N2CCN(CCO)CC2)n1 [DAS, dasatinib] | 12.2 |

----------
- ASSAY_EXPLANATION: In vivo pharmacokinetics
- Set-up: species or system Male Wistar rats
- SETUP_CONDITIONS: male, Wistar, intravenous; rat plasma, 5 mg/kg

| SMILES_NOTATION | Tmax [h] |
| --- | --- |
| Cc1nc(Nc2ncc(C(=O)Nc3c(C)cccc3Cl)s2)cc(N2CCN(CCO)CC2)n1 | 2 |

----------
- ASSAY_EXPLANATION: In vivo pharmacokinetics
- Parameters: species or system Male Wistar rats
- SETUP_CONDITIONS: male, Wistar; rat plasma, 5 mg/kg via intravenous
- Procedure: Male Wistar rats, each weighing 200 ± 10 g, were obtained from the Experimental Animal Centre at NMIMS University. The study was conducted in accordance with the guidelines approved by the NMIMS University Animal Experimental Ethics Committee (protocol number SPTM/09/2023/IAEC/05). […] The total dose of DAS in two group was 5 mg/kg via intravenous. […] The pharmacokinetic parameters were calculated using the DAS 2.1.1 software (Shanghai, China).
PROPERTY_LABEL: Tmax (h)

| SMILES_NOTATION | NUMBER |
| --- | --- |
| Cc1nc(Nc2ncc(C(=O)Nc3c(C)cccc3Cl)s2)cc(N2CCN(CCO)CC2)n1 | 2 |

----------
- ASSAY_EXPLANATION: In vivo pharmacokinetics
- Design: species or system Male Wistar rats
- SETUP_CONDITIONS: male, Wistar, plasma; rat, 5 mg/kg via intravenous
PROPERTY_LABEL: MRT (h)

| MOLECULE | READING_UNIT | NUMBER |
| --- | --- | --- |
| Cc1nc(Nc2ncc(C(=O)Nc3c(C)cccc3Cl)s2)cc(N2CCN(CCO)CC2)n1 [DAS, dasatinib] | h | 3.3 |

Measured values drawn from paper PMC11570312 for this set.
